activity coefficient listing for selected molecules.
Assay: activity coefficient (dimensionless); of the first substance listed, at infinite dilution; xn = mol fraction of the nth substance listed
Settings: 388.15 K; 101 kPa; Liquid; Chromatography; x1 = 0

[
  {
    "molecule": "CC#N [acetonitrile] + CCCCn1cc[n+](C)c1.COP(=O)([O-])OC",
    "activity coefficient": 1
  },
  {
    "molecule": "Cc1ccccc1 [toluene] + CCCCn1cc[n+](C)c1.[Cl-]",
    "activity coefficient": 8.36
  },
  {
    "molecule": "Cc1ccccc1 [toluene] + CCCCn1cc[n+](C)c1.COP(=O)([O-])OC",
    "activity coefficient": 4.29
  },
  {
    "molecule": "CC(C)=O [acetone] + CCCCn1cc[n+](C)c1.COP(=O)([O-])OC",
    "activity coefficient": 2.1
  },
  {
    "molecule": "COC(C)=O [methyl ethanoate] + CCCCn1cc[n+](C)c1.[Cl-]",
    "activity coefficient": 5.09
  },
  {
    "molecule": "C1CCCC1 [cyclopentane] + CCCCn1cc[n+](C)c1.[Cl-]",
    "activity coefficient": 31.8
  },
  {
    "molecule": "CCCCCCCCC [nonane] + CCCCn1cc[n+](C)c1.COP(=O)([O-])OC",
    "activity coefficient": 59.1
  },
  {
    "molecule": "CCCCCCCC [octane] + CCCCn1cc[n+](C)c1.CS(=O)(=O)[O-]",
    "activity coefficient": 155
  },
  {
    "molecule": "C=C(C)c1ccccc1 [(1-methylethenyl)benzene] + CCCCn1cc[n+](C)c1.CS(=O)(=O)[O-]",
    "activity coefficient": 7.41
  },
  {
    "molecule": "CCCCCCCC [octane] + CCCCn1cc[n+](C)c1.COP(=O)([O-])OC",
    "activity coefficient": 43.4
  },
  {
    "molecule": "CCCCCCCCCC [decane] + CCCCn1cc[n+](C)c1.CS(=O)(=O)[O-]",
    "activity coefficient": 324
  },
  {
    "molecule": "COC(C)(C)C [2-methoxy-2-methylpropane] + CCCCn1cc[n+](C)c1.CS(=O)(=O)[O-]",
    "activity coefficient": 18.6
  },
  {
    "molecule": "CCC[N+](=O)[O-] [1-nitropropane] + CCCCn1cc[n+](C)c1.CS(=O)(=O)[O-]",
    "activity coefficient": 2.13
  },
  {
    "molecule": "CCC(=O)OC [methyl propanoate] + CCCCn1cc[n+](C)c1.[Cl-]",
    "activity coefficient": 8.31
  },
  {
    "molecule": "CCCC=O [butanal] + CCCCn1cc[n+](C)c1.CS(=O)(=O)[O-]",
    "activity coefficient": 3.74
  },
  {
    "molecule": "c1ccccc1 [benzene] + CCCCn1cc[n+](C)c1.[Cl-]",
    "activity coefficient": 4.82
  },
  {
    "molecule": "C=CCCCCCC [oct-1-ene] + CCCCn1cc[n+](C)c1.CS(=O)(=O)[O-]",
    "activity coefficient": 85.6
  },
  {
    "molecule": "C1CCCCCC1 [cycloheptane] + CCCCn1cc[n+](C)c1.COP(=O)([O-])OC",
    "activity coefficient": 14
  },
  {
    "molecule": "C1CCCCCC1 [cycloheptane] + CCCCn1cc[n+](C)c1.[Cl-]",
    "activity coefficient": 53.6
  }
]

Origin of measurements: the NIST ThermoML archive (doi:10.1016/j.jct.2015.07.042)
